Molecular target: T1, recombinant antigen of the extracellular region of CD47 (Sino Biological, Cat: 12283-H08H) (human, UniProt Q08722 19-139)
T1 construct: extracellular domain; also called recombinant CD47 extracellular region; CD47 recombinant protein
T1 sequence (Q08722 19-139 limits assumed): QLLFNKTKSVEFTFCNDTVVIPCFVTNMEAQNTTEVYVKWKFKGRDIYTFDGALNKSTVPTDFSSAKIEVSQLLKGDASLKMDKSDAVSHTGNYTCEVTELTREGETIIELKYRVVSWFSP
Test: Fortebio BLI, recombinant CD47
Property: Kd; scope: individual binders
Entry rule: numbers only, all in nM.

- Binder: "hz140-Hm13/hz182-Lm4 (antibody, V domains shown) VH: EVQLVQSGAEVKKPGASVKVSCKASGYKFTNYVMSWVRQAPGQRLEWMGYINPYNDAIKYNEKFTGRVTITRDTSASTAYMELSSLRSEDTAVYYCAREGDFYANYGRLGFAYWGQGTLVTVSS VL: DIQMTQSPSSLSASVGDRVTITCRASQDITNYLNWYQQKPGKAPKLLLYYTSRLHSGVPSRFSGSGSGTDYTLTISSLQPEDFATYFCQQGAGRPYTFGGGTKVEIKR"
  Observed Property: "Kd"
  Unit Descriptor: "nM"
  Reported Measurement: 989

// next item, Kd requested
In plain terms, hz140-Hm13/hz182-Lm1 (antibody, V domains shown, also called hz182-Lml) VH: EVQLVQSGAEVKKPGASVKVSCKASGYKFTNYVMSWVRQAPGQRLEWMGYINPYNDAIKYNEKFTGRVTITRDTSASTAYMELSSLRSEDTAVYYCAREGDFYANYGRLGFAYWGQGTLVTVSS VL: DIQMTQSPSSLSASVGDRVTITCRASQDISNYLNWYQQKPGKAPKLLIYYTSRLHSGVPSRFSGSGSGTDYTLTISSLQPEDFATYFCQQGAGRPYTFGGGTKVEIKR has a documented Kd of 7.06
